Sourced from patent US20160355530A1

This listing pairs compounds with measured IC50.
target-of-assay: HCV NS5B polymerase 1a-H77 (Hepatitis C virus genotype 1a, UniProt P27958)
Construct: six-histidine tag; made in house; host or cells: E. coli
Sequence (P27958 2421-2990): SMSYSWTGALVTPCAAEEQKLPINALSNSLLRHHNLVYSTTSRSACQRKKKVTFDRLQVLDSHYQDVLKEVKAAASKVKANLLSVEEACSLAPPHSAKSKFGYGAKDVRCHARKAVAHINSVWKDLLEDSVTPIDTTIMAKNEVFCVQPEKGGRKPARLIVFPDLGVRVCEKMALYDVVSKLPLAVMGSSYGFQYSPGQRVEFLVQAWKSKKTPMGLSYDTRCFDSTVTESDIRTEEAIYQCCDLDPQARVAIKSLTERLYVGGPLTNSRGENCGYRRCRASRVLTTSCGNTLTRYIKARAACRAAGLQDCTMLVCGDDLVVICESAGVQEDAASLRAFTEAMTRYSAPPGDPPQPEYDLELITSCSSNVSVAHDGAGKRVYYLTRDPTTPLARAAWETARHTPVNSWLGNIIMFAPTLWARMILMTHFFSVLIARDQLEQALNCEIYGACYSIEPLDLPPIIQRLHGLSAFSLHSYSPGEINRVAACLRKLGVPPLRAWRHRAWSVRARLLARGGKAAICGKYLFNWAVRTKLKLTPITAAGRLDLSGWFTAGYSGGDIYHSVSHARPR
protocol-notes: biochemical
Design: species or system HCV genotype 1a
condition-label: enzyme, strain 1a H77; read-out: HCV Polymerase Strain 1a H77 IC50
Provide only the numeric value, understood in nM.

Example entries and their recorded answers appear below.
{"columns": ["compound", "IC50 / nM"],
 "data": [
  ["CS(=O)(=O)N(CCOc1ccccc1)c1cc2oc(-c3ccc(F)cc3)c(-c3ncc[nH]3)c2cc1C1CC1 [Example 43]", 6.5],
  ["COC(=O)CCCN(c1cc2oc(-c3ccc(F)cc3)c(-c3ncc[nH]3)c2cc1C1CC1)S(C)(=O)=O [Example 68]", 5.9],
  ["COc1ccc(CN(c2cc3oc(-c4ccc(F)cc4)c(C4=NOC(C)N4)c3cc2C2CC2)S(C)(=O)=O)cc1 (stereo not shown) [Example 151]", 9]
]}

Turning now to a further record.
Incoming: Endpoint output: IC50 of CS(=O)(=O)N(CCC/C(N)=N/O)c1cc2oc(-c3ccc(F)cc3)c(C3=NOCCN3)c2cc1C1CC1 [Example 181] . Value?
Outgoing: 10
